target: Carbonic anhydrase 9 (Homo sapiens, UniProt Q16790); experiment: Inhibition of human recombinant carbonic anhydrase 9-mediated CO2 hydration after 6 hrs by stopped-flow assay
This listing pairs compounds with measured pKi.
pKi here: minus log base 10 of the concentration, concentration in moles per litre.

{"test.smiles": "O=S1(=O)C=Cc2cc(-n3cc(-c4ccc(C(F)(F)F)cc4)nn3)ccc2O1", "pKi": 6.87}
{"test.smiles": "Nc1ccccc1-c1cnnn1-c1ccc2c(c1)C=CS(=O)(=O)O2", "pKi": 8.02}
{"test.smiles": "COc1cccc(-c2cnnn2-c2ccc3c(c2)C=CS(=O)(=O)O3)c1", "pKi": 8.04}
{"test.smiles": "O=S1(=O)C=Cc2cc(-n3nncc3-c3ccccc3)ccc2O1", "pKi": 7.17}
{"test.smiles": "COc1ccc(-c2cnnn2-c2ccc3c(c2)C=CS(=O)(=O)O3)cc1", "pKi": 8.08}
{"test.smiles": "CC(C)(O)c1cn(-c2ccc3c(c2)C=CS(=O)(=O)O3)nn1", "pKi": 7.20}

Q) API: value(readout=pKi, system=Carbonic anhydrase 9 (Homo sapiens, UniProt Q16790)) for record Nc1ccccc1-c1cn(-c2ccc3c(c2)C=CS(=O)(=O)O3)nn1
A) 8.10

Q) O=S1(=O)C=Cc2cc(-n3nncc3-c3ccc(C(F)(F)F)cc3)ccc2O1 , same question.
A) 8.14

Q) Field entry: O=S1(=O)C=Cc2cc(-n3nncc3-c3ccc(OC(F)(F)F)cc3)ccc2O1
A) 6.99

Q) Try the compound O=S1(=O)C=Cc2cc(-n3cc(-c4cccc(Cl)c4)nn3)ccc2O1
A) 7.03
